- Tested on: CRAB strain AC9
- RUN_DESCRIPTION: Antibiotic MIC (CLSI microdilution or gradient strips)
- Format: cell-based, Acinetobacter baumannii
- EXPERIMENTAL_SETUP: Acinetobacter baumannii, AC9; CSF isolate; CLSI; read-out: MIC, AC9
MEASURED_METRIC: MIC (µg/mL)

>>> measurement("CC(C)(O/N=C(\\C(=O)N[C@@H]1C(=O)N2C(C(=O)[O-])=C(C[n+]3ccccc3)CS[C@H]12)c1csc(N)n1)C(=O)O")
32
>>> measurement("C[C@@H](O)[C@H]1C(=O)N2C(C(=O)O)=C(S[C@@H]3CN[C@H](C(=O)N(C)C)C3)[C@H](C)[C@H]12")
16
>>> measurement("C[C@@H](O)[C@H]1C(=O)N2C(C(=O)O)=C(SCCN=CN)C[C@H]12")
16
>>> measurement("CN(C)c1cc(NC(=O)CNC(C)(C)C)c(O)c2c1C[C@H]1C[C@H]3[C@H](N(C)C)C(O)=C(C(N)=O)C(=O)[C@@]3(O)C(O)=C1C2=O")
1
>>> measurement("CN(C)[C@@H]1C(O)=C(C(N)=O)C(=O)[C@@]2(O)C(O)=C3C(=O)c4c(O)cccc4[C@@](C)(O)[C@H]3C[C@@H]12")
32

* * *

- Tested on: A. baumannii SSI1104
- RUN_DESCRIPTION: BPP-PNA MIC, broth microdilution
- Assay type: cell-based, Acinetobacter baumannii
- EXPERIMENTAL_SETUP: Table 4 (anti-rne), brand of medium not given; non-cation-adjusted MHB by method
{(KFF)3K-eg1} = H-(KFF)3K peptide (K lysine, F phenylalanine) with eg1 linker (8-amino-3,6-dioxaoctanoyl), on the PNA N terminus (5' end); {NH2} = C-terminal amide
MEASURED_METRIC: MIC, SSI 1104 (µM)

>>> measurement("H-(KFF)3K-eg1-ATCCGTTTAAT-NH2 (all peptide nucleic acid (PNA), 5' {(KFF)3K-eg1}, 3' {NH2}) [PNA 5821, anti-rne mismatch control of 5654]")
2
>>> measurement("H-(KFF)3K-eg1-TTTCATGGGTG-NH2 (antisense; N-terminal (KFF)3K-eg1 peptide, C-terminal amide, backbone not given here, further chemistry not given here) [PNA 5656, anti-rne peptide-PNA conjugate, match, −5 to +6]")
2
>>> measurement("H-(KFF)3K-eg1-ATACGTTTCAT-NH2 (all peptide nucleic acid (PNA), 5' {(KFF)3K-eg1}, 3' {NH2}) [PNA 5654, anti-rne peptide-PNA conjugate, match, +1 to +11]")
2
>>> measurement("H-(KFF)3K-eg1- TTTGATGTGTG -NH2 (all peptide nucleic acid (PNA), 5' {(KFF)3K-eg1}, 3' {NH2}) [PNA 5822, anti-rne mismatch control of 5656]")
8

* * *

- Test system: A. baumannii ATCC 19606
- RUN_DESCRIPTION: BPP-PNA MIC, broth microdilution
- Assay type: cell-based, Acinetobacter baumannii
- EXPERIMENTAL_SETUP: Sigma MHB medium without cation; ~5 × 10^5 CFU/mL, 37 °C, 18 h, OD595 < 0.1
{(KFF)3K-eg1} = H-(KFF)3K peptide (K lysine, F phenylalanine) with eg1 linker (8-amino-3,6-dioxaoctanoyl), on the PNA N terminus (5' end); {(kff)3k-eg1} = D-form (kff)3k peptide with eg1 linker (8-amino-3,6-dioxaoctanoyl), on the PNA N terminus; {NH2} = C-terminal amide
Recorded MIC, ATCC 19606 by entry
MEASURED_METRIC: MIC, ATCC 19606 (µM)

>>> measurement("H-(kff)3k -eg1-TGACTTGTCAC-NH2 (all peptide nucleic acid (PNA), 5' {(kff)3k-eg1}, 3' {NH2}) [PNA 5824, anti-acpP PNA with D-form peptide, mismatch]")
8
>>> measurement("H-(KFF)3K-eg1-TGATTTGCCAC-NH2 (antisense; N-terminal (KFF)3K-eg1 peptide, C-terminal amide, backbone not given here, further chemistry not given here) [PNA 5639, anti-acpP peptide-PNA conjugate, match, +1 to +11]")
2
>>> measurement("H-(KFF)3K-eg1-TGACTTGTCAC-NH2 (all peptide nucleic acid (PNA), 5' {(KFF)3K-eg1}, 3' {NH2}) [PNA 5640, anti-acpP mismatch control of 5639]")
4
>>> measurement("H-(KFF)3K-eg1-ATACCGCTTAC-NH2 (all peptide nucleic acid (PNA), 5' {(KFF)3K-eg1}, 3' {NH2}) [PNA 5653, anti-acpP mismatch control of 5652]")
4
>>> measurement("H-(KFF)3K-eg1-ATATCGCTCAC-NH2 (all peptide nucleic acid (PNA), 5' {(KFF)3K-eg1}, 3' {NH2}) [PNA 5652, anti-acpP peptide-PNA conjugate, match, +40 to +50]")
4
>>> measurement("H-(kff)3k-eg1-TGATTTGCCAC-NH2 (all peptide nucleic acid (PNA), 5' {(kff)3k-eg1}, 3' {NH2}) [PNA 5823, anti-acpP PNA with D-form peptide, match]")
4

* * *

- Test system: CRAB strain AC44
- RUN_DESCRIPTION: BPP-PNA MIC, broth microdilution
- Assay type: cell-based, Acinetobacter baumannii
- EXPERIMENTAL_SETUP: MHB without cation (Oxoid); 37 °C, 18 h
{(KFF)3K-eg1} = H-(KFF)3K peptide (K lysine, F phenylalanine) with eg1 linker (8-amino-3,6-dioxaoctanoyl), on the PNA N terminus (5' end); {NH2} = C-terminal amide
Reported MIC, AC44 by item:
MEASURED_METRIC: MIC, AC44 (µM)

>>> measurement("H-(KFF)3K-eg1-GAGTCCAGGAC-NH2 (all peptide nucleic acid (PNA), 5' {(KFF)3K-eg1}, 3' {NH2}) [PNA 5615, anti-ftsZ mismatch control of 5612]")
16
>>> measurement("H-(KFF)3K-eg1-ATGAGGCCATG-NH2 (all peptide nucleic acid (PNA), 5' {(KFF)3K-eg1}, 3' {NH2}) [PNA 5657, anti-ftsZ peptide-PNA conjugate, match, −1 to +10]")
16
>>> measurement("H-(KFF)3K-eg1-GGCCATGACCT-NH2 (N-terminal (KFF)3K-eg1 peptide, C-terminal amide, backbone not given here, further chemistry not given here) [PNA 5658, anti-ftsZ peptide-PNA conjugate, match, −5 to +6]")
8
>>> measurement("H-(KFF)3K-eg1-GAGGCCATGAC-NH2 (antisense; N-terminal (KFF)3K-eg1 peptide, C-terminal amide, backbone not given here, further chemistry not given here) [PNA 5612, anti-ftsZ peptide-PNA conjugate, match, −3 to +8]")
8

* * *

List of MIC, AC2 values.
- Tested on: CRAB strain AC2
- RUN_DESCRIPTION: BPP-PNA MIC, broth microdilution
- Format: cell-based, Acinetobacter baumannii
- EXPERIMENTAL_SETUP: Table 4 (anti-rne), brand of medium not given; non-cation-adjusted MHB by method
{(KFF)3K-eg1} = H-(KFF)3K peptide (K lysine, F phenylalanine) with eg1 linker (8-amino-3,6-dioxaoctanoyl), on the PNA N terminus (5' end); {NH2} = C-terminal amide
MEASURED_METRIC: MIC, AC2 (µM)

>>> measurement("H-(KFF)3K-eg1-TTTCATGGGTG-NH2 (antisense; N-terminal (KFF)3K-eg1 peptide, C-terminal amide, backbone not given here, further chemistry not given here) [PNA 5656, anti-rne peptide-PNA conjugate, match, −5 to +6]")
2
>>> measurement("H-(KFF)3K-eg1- TTTGATGTGTG -NH2 (all peptide nucleic acid (PNA), 5' {(KFF)3K-eg1}, 3' {NH2}) [PNA 5822, anti-rne mismatch control of 5656]")
8
>>> measurement("H-(KFF)3K-eg1-GTTTCATGGGT-NH2 (all peptide nucleic acid (PNA), 5' {(KFF)3K-eg1}, 3' {NH2}) [PNA 5655, anti-rne peptide-PNA conjugate, match, −4 to +7]")
8
>>> measurement("H-(KFF)3K-eg1-ATCCGTTTAAT-NH2 (all peptide nucleic acid (PNA), 5' {(KFF)3K-eg1}, 3' {NH2}) [PNA 5821, anti-rne mismatch control of 5654]")
2
>>> measurement("H-(KFF)3K-eg1-ATACGTTTCAT-NH2 (all peptide nucleic acid (PNA), 5' {(KFF)3K-eg1}, 3' {NH2}) [PNA 5654, anti-rne peptide-PNA conjugate, match, +1 to +11]")
2

* * *

- Test system: A. baumannii SSI1104
- RUN_DESCRIPTION: BPP-PNA MIC, broth microdilution
- Type: cell-based, Acinetobacter baumannii
- EXPERIMENTAL_SETUP: MHB without cation (Oxoid); 37 °C, 18 h
{(KFF)3K-eg1} = H-(KFF)3K peptide (K lysine, F phenylalanine) with eg1 linker (8-amino-3,6-dioxaoctanoyl), on the PNA N terminus (5' end); {NH2} = C-terminal amide
Quick reference for MIC, SSI 1104 among some substances
MEASURED_METRIC: MIC, SSI 1104 (µM)

>>> measurement("H-(KFF)3K-eg1-GAGTCCAGGAC-NH2 (all peptide nucleic acid (PNA), 5' {(KFF)3K-eg1}, 3' {NH2}) [PNA 5615, anti-ftsZ mismatch control of 5612]")
16
>>> measurement("H-(KFF)3K-eg1-GGCCATGACCT-NH2 (N-terminal (KFF)3K-eg1 peptide, C-terminal amide, backbone not given here, further chemistry not given here) [PNA 5658, anti-ftsZ peptide-PNA conjugate, match, −5 to +6]")
8
>>> measurement("H-(KFF)3K-eg1-TGATTTGCCAC-NH2 (antisense; N-terminal (KFF)3K-eg1 peptide, C-terminal amide, backbone not given here, further chemistry not given here) [PNA 5639, anti-acpP peptide-PNA conjugate, match, +1 to +11]")
2
